Experiment: small-molecule microarray binders of probe aShh, primary screen, biochemical, biotinylated probe, 635/667 nm fluorescence (AID 1114);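 also: probe is biotin-labelled aShh protein from a stem cell growth factor screen; measures binding of labelled protein to compounds printed on the slide; score merges feature fluorescence at 667 nm with signal-to-noise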
Conditions: higher = more signal

record_smiles: CO[C@H]1O[C@H](CO)[C@@H](OC(=O)CCc2ccccc2)[C@@H]2OC(=O)[C@@H](Cc3ccc4ccccc4c3)C/C=C/C[C@H](Cc3ccc4ccccc4c3)C(=O)O[C@@H]12
composite z-score: -0.0709

record_smiles: CCOC(=O)C1=C[C@@H](C(C)(C)C)N(S(=O)(=O)c2ccc(C)cc2)[C@H]1c1ccc(OC)cc1
composite z-score: 0.216

record_smiles: CCCN1C(=O)[C@@]2(c3ccc([N+](=O)[O-])cc3)CC(=O)N(C3CCCCC3)[C@@H]2c2ccc(CO)cc21
composite z-score: -0.225
